# test.target: MAST3, O60307
# Sequence (O60307 945-1048): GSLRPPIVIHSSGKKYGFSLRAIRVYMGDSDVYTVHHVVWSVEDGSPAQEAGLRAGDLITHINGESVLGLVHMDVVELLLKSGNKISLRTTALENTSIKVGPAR
# protocol: holdup assay
# Set-up: key: below the threshold = too weak to quantify, mostly under pKd 3.1 to 4
# run.conditions: plain residues with an end cap or a label only (N-terminal biotin on a linker: ttds)
parameter: pKd

binder="SVWLRKETRV [CYSLTR2, Q9NS75]" assay_result="below the threshold"
binder="QSARYRDTEL [TJP2, Q9UDY2]" assay_result="below the threshold"
binder="PKTPPTDTSV [KIR3DL3, Q8N743]" assay_result="below the threshold"
